Reference for the values: the RNAGym collection of RNA variant scans (doi:10.7554/elife.80360)

B1: Twister Ribozyme (parent)
chain: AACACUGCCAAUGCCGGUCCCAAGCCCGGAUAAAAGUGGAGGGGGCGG

variants of: B1; assay: self-cleavage, relative activity (ratio to wild type); higher = more cleavage; co-transcriptional
Note to self: class = bucket of self-cleavage, per interval 1: < 0.1; interval 2: ≥ 0.1 and < 0.7; interval 3: ≥ 0.7

- Mutation name: "C9A G36A"
  Qualitative label: "interval 2"
- Mutation name: "C9A G41U"
  Qualitative label: "interval 2"
- Mutation name: "G24C A32G"
  Qualitative label: "interval 1"
- Mutation name: "G13U U31G"
  Qualitative label: "interval 2"
- Mutation name: "C14U A34G"
  Qualitative label: "interval 3"
- Mutation name: "U12A C21U"
  Qualitative label: "interval 2"
- Mutation name: "C3U C21A"
  Qualitative label: "interval 1"
- Mutation name: "C19U G28C"
  Qualitative label: "interval 3"
- Mutation name: "C20G C21A"
  Qualitative label: "interval 1"
- Mutation name: "C20U G38A"
  Qualitative label: "interval 3"
- Mutation name: "C19A A23C"
  Qualitative label: "interval 2"
